Cited source for all entries: patent US9040533B2

- SYSTEM: delta opioid receptor (Homo sapiens, UniProt P41143)
- Sequence (P41143 whole entry): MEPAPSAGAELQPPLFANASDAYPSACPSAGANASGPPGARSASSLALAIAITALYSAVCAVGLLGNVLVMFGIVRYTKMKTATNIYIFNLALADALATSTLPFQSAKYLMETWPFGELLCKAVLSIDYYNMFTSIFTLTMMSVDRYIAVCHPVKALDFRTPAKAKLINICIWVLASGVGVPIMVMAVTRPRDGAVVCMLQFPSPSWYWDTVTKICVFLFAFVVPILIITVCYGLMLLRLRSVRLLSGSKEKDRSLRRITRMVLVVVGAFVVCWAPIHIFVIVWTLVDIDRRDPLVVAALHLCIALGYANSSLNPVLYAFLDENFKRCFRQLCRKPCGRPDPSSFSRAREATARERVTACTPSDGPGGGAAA
- TEST DETAILS: In vitro delta-opioid receptor binding assay ([3H]-Naltrindole displacement)
Listed next: entries and their corresponding Ki.

{"COMPOUND": "CON=C(CCC(=O)O)c1nc2ccccc2n([C@H]2C[C@H]3COC[C@@H](C2)N3C2CC3CCCCC(C3)C2)c1=O (stereo partly drawn)", "OBSERVED": "> 20 µM"}
{"COMPOUND": "CON=C(CCC(=O)O)c1nc2ccccc2n([C@H]2C[C@H]3CC[C@@H](C2)N3C2CC3CCCC(C3)C2)c1=O (stereo partly drawn)", "OBSERVED": "> 20 µM"}

Please turn your attention to the following entry.
(Q) Could you share which Ki value was measured for NC(=O)/C(=N\OCC(=O)O)c1nc2ccccc2n([C@H]2C[C@H]3CCC[C@@H](C2)N3C2CC3CCCC(C3)C2)c1=O (stereo partly drawn) ?
(A) > 20 µM
